# target or system: D5 (Homo sapiens)
# Construct: NIMH Psychoactive Drug Screening Program (PDSP)
# Sequence (P21918 whole entry): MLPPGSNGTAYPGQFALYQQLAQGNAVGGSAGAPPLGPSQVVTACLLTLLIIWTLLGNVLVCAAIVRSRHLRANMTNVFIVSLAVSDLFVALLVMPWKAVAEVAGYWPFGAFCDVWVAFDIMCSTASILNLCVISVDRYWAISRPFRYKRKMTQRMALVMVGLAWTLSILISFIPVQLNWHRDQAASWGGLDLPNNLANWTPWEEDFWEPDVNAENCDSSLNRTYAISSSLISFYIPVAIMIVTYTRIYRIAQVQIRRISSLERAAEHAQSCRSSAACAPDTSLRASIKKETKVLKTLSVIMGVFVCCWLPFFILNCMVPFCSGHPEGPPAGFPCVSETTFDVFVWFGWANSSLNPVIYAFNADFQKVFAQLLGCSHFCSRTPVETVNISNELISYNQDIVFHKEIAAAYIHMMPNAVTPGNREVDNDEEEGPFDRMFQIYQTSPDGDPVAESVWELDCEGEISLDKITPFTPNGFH
# assay: PDSP binding assay, D5
# protocol conditions: PDSP, mean, n = 2; read-out: Ki, D5
Listed here are molecules together with their documented Ki.

| molecule | target or system | unit string | Ki |
| --- | --- | --- | --- |
| CC(C)(C)OC(=O)NCCC#Cc1ccc2c(c1)C=C([N+](=O)[O-])C(C(F)(F)F)O2 (stereo not shown) [Compound 20] | D5 (Homo sapiens) | µM | 4.4 |
| CC(C)(C)OC(=O)NCCCCCCCC#Cc1cccc2c1OC(C(F)(F)F)C([N+](=O)[O-])=C2 (stereo not shown) [Compound 37] | D5 (Homo sapiens) | µM | 4.2 |
| CC(C)(C)OC(=O)NCCCCCCCC#Cc1ccc2c(c1)C=C([N+](=O)[O-])C(C(F)(F)F)O2 (stereo not shown) [Compound 30] | D5 (Homo sapiens) | µM | 0.78 |
| CC(C)(C)OC(=O)NCCCCC#Cc1ccc2c(c1)C=C([N+](=O)[O-])C(C(F)(F)F)O2 (stereo not shown) [Compound 24] | D5 (Homo sapiens) | µM | 2.4 |

----------
# target or system: D2 (Homo sapiens, UniProt P14416)
# Construct: NIMH Psychoactive Drug Screening Program (PDSP)
# Sequence (P14416 whole entry): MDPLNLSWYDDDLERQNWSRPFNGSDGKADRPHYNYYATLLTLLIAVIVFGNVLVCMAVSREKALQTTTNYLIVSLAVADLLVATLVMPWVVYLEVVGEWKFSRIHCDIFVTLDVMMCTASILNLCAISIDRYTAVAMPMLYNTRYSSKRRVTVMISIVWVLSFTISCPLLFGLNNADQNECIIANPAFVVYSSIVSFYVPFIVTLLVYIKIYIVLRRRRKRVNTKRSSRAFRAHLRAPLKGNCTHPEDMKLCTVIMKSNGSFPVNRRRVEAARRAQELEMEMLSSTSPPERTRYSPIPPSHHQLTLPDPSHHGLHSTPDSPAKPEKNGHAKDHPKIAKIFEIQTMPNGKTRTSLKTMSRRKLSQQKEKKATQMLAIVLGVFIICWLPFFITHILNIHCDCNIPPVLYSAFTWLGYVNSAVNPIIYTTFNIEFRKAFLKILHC
# assay: PDSP binding assay, D2
# protocol conditions: Table S2, single determination
measured parameter: Ki

| compound | target or system | measured parameter | result |
| --- | --- | --- | --- |
| CC(C)(C)OC(=O)NCCCCCCCC#Cc1ccc2c(c1)C=C([N+](=O)[O-])C(C(F)(F)F)O2 (stereo not shown) | D2 (Homo sapiens, UniProt P14416) | Ki | > 10000 nM |

----------
# target or system: H2 (Homo sapiens)
# Sequence (P25021 whole entry): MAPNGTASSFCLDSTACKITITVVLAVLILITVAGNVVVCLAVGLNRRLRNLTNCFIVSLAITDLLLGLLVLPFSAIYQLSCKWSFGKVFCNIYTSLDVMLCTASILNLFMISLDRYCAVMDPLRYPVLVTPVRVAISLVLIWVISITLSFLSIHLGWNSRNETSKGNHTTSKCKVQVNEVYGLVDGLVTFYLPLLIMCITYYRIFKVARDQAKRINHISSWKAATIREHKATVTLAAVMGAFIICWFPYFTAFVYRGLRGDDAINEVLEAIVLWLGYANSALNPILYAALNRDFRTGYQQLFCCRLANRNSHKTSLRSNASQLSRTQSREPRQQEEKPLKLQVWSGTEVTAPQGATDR
pKi: −log10 of the molar value.
measured parameter: pKi

| compound | target or system | quantitative readout |
| --- | --- | --- |
| CC(C)(C)OC(=O)NCCCCCCCC#Cc1ccc2c(c1)C=C([N+](=O)[O-])C(C(F)(F)F)O2 (stereo not shown) [Compound 30] | H2 (Homo sapiens) | 6.30 |

----------
Entries below carry reported Ki on α2B (Homo sapiens, UniProt P18089).
Sequence (P18089 whole entry): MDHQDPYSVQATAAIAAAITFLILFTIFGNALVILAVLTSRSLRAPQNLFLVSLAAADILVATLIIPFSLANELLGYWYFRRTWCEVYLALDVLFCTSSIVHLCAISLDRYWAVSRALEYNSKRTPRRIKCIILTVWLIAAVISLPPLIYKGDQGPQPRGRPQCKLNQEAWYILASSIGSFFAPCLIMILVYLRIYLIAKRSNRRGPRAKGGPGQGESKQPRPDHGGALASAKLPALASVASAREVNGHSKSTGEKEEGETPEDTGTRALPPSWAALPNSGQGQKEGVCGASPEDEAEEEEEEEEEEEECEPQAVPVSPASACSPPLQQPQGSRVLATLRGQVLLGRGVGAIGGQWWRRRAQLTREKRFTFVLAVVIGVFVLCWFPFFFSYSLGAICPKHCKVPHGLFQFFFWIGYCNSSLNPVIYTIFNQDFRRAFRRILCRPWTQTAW

| compound | Ki [nM] |
| --- | --- |
| CC(C)(C)OC(=O)NCCCCCCCC#Cc1ccc2c(c1)C=C([N+](=O)[O-])C(C(F)(F)F)O2 (stereo not drawn) | 170 |
| CC(C)(C)OC(=O)NCCCCCC#Cc1ccc2c(c1)C=C([N+](=O)[O-])C(C(F)(F)F)O2 (stereo not drawn) | 1700 |
| CC(C)(C)OC(=O)NCCCCC#Cc1ccc2c(c1)C=C([N+](=O)[O-])C(C(F)(F)F)O2 (stereo not drawn) | 460 |

----------
# target or system: SERT (Homo sapiens, UniProt P31645)
# Construct: NIMH Psychoactive Drug Screening Program (PDSP)
# Sequence (P31645 whole entry): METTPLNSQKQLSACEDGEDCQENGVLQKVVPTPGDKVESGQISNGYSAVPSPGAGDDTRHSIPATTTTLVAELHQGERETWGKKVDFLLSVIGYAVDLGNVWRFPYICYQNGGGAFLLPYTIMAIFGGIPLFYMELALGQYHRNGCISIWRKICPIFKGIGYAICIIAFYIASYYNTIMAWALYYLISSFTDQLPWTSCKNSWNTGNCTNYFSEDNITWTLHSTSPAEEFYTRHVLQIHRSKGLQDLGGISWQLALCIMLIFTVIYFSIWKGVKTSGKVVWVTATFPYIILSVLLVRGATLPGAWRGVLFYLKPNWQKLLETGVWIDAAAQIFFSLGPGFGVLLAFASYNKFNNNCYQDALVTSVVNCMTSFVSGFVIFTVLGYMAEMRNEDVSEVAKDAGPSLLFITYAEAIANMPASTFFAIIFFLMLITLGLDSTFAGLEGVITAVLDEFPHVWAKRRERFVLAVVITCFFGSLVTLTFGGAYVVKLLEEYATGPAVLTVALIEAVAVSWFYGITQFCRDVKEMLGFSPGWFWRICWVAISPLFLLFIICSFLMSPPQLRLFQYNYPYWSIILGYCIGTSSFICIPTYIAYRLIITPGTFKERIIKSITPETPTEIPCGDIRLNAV
# assay: PDSP binding assay, SERT
# protocol conditions: Table S2, single determination
measured parameter: Ki

| molecule | result |
| --- | --- |
| CC(C)(C)OC(=O)NCCCCCCCC#Cc1ccc2c(c1)C=C([N+](=O)[O-])C(C(F)(F)F)O2 (stereo not shown) [Compound 30] | > 10000 nM |

----------
Listed here are compounds together with their documented pKi.
# target or system: H1 (Homo sapiens)
# Construct: NIMH Psychoactive Drug Screening Program (PDSP)
# Sequence (P35367 whole entry): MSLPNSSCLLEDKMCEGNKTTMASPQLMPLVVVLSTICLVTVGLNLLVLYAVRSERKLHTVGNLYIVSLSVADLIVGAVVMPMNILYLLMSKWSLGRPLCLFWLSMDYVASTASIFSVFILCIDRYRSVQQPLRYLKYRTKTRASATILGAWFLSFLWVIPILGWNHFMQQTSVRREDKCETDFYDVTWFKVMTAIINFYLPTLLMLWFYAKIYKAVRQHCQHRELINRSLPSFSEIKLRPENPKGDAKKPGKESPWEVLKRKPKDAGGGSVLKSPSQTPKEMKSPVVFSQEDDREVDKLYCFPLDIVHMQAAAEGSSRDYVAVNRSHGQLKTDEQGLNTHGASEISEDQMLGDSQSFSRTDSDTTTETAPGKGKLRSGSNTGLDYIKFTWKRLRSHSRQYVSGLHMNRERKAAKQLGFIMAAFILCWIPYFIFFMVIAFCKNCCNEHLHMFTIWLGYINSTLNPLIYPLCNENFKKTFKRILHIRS
# assay: PDSP binding assay, H1
# protocol conditions: PDSP, mean, n = 2; read-out: Ki, H1
pKi: −log10 of the molar value.

| compound | pKi |
| --- | --- |
| CC(C)(C)OC(=O)NCCCCC#Cc1ccc2c(c1)C=C([N+](=O)[O-])C(C(F)(F)F)O2 (centres unmarked) [Compound 24] | 6.00 |
| CC(C)(C)OC(=O)NCCCCCCCC#Cc1cccc2c1OC(C(F)(F)F)C([N+](=O)[O-])=C2 (centres unmarked) [Compound 37] | 5.14 |
